# test-method-notes: Metabolic (microsomal) stability assay, human liver microsomes (HLM)
# Assay type: in vitro ADME
# study-conditions: 1 μM test compound, 37° C.
value-type: HLM [% QH]

Can you share its HLM [% QH]? I mean this compound: Cc1nc(N[C@H](C)c2cccc(C(F)(F)F)c2)c2cn(C(C)C)c(=O)cc2n1 <24 % QH

Can you share its HLM [% QH]? I mean this compound: Cc1nc(N[C@H](C)c2cccc(C(F)F)c2F)c2cn([C@]3(C(F)(F)F)CCOC3)c(=O)c(F)c2n1 24 % QH

Can you share its HLM [% QH]? I mean this compound: Cc1nc(N[C@H](C)c2cccc(C(F)(F)F)c2C)c2cn([C@H]3C[C@](O)(C(F)(F)F)C3)c(=O)cc2n1 24 % QH

Can you share its HLM [% QH]? I mean this compound: Cc1nc(N[C@H](C)c2cccc(C(C)(F)F)c2)c2cn(C3(C)CC3)c(=O)cc2n1 <24 % QH

Can you share its HLM [% QH]? I mean this compound: Cc1nc(N[C@H](C)c2cccc(C(C)(F)F)c2)c2cn(C34CC(F)(C3)C4)c(=O)cc2n1 <24 % QH

Can you share its HLM [% QH]? I mean this compound: C[C@@H](Nc1ncnc2c(F)c(=O)n(C3(C(F)F)CC3)cc12)c1cccc(C(F)F)c1F <24 % QH

Can you share its HLM [% QH]? I mean this compound: Cc1nc(N[C@H](C)c2cccc(C(F)F)c2F)c2cn([C@H](C)C(F)(F)F)c(=O)cc2n1 <24 % QH

Can you share its HLM [% QH]? I mean this compound: Cc1nc(N[C@H](C)c2cccc(C(F)F)c2F)c2cn(C3CC(F)(F)C3)c(=O)cc2n1 <24 % QH

Can you share its HLM [% QH]? I mean this compound: Cc1nc(N[C@H](C)c2cccc(C(F)(F)F)c2)c2cn(C3(C)CC3)c(=O)cc2n1 <24 % QH

Can you share its HLM [% QH]? I mean this compound: Cc1c(=O)n([C@@H]2C[C@H]2C(F)F)cc2c(N[C@H](C)c3cccc(C(F)F)c3F)ncnc12 24 % QH

Can you share its HLM [% QH]? I mean this compound: Cc1nc(N[C@H](C)c2cccc(C(F)(F)C(C)(C)O)c2F)c2cn(C34CC(C3)C4)c(=O)c(F)c2n1 <24 % QH

Can you share its HLM [% QH]? I mean this compound: Cc1c(=O)n(C2(C)CC2)cc2c(N[C@H](C)c3cccc(C(F)F)c3F)ncnc12 31 % QH

Can you share its HLM [% QH]? I mean this compound: Cc1nc(N[C@H](C)c2cccc(C(F)F)c2F)c2cn(C3(C)CC3)c(=O)c(F)c2n1 <24 % QH

Can you share its HLM [% QH]? I mean this compound: Cc1c(=O)n(-c2cnn(C)c2)cc2c(N[C@H](C)c3cccc(C(F)F)c3F)ncnc12 <24 % QH

Can you share its HLM [% QH]? I mean this compound: Cc1nc(N[C@H](C)c2cccc(C(F)F)c2F)c2cn([C@H]3C[C@H](F)C3)c(=O)c(F)c2n1 <24 % QH

Can you share its HLM [% QH]? I mean this compound: Cc1c(=O)n([C@H]2C[C@@H]2C(F)F)cc2c(N[C@H](C)c3cccc(C(F)F)c3F)ncnc12 <24 % QH
